condition.label: in DMSO, 323.15 K
readout.kind: solubility (mole fraction)
Reply: number alone, nothing else.

Qu. Field request: solubility (mole fraction) | item: Cc1c(-c2ccccc2)oc2c(C(=O)OCCN3CCCCC3)cccc2c1=O.Cl
Ans. 0.0018

====

condition.label: in ethylene glycol, 293.15 K
readout.kind: solubility (mole fraction)
Reply: number alone, nothing else.

Qu. Field request: solubility (mole fraction) | item: Cc1c(-c2ccccc2)oc2c(C(=O)OCCN3CCCCC3)cccc2c1=O.Cl
Ans. 0.00161

====

condition.label: in 2-methoxyethanol, 283.15 K
readout.kind: solubility (mole fraction)
Reply: number alone, nothing else.

Qu. Field request: solubility (mole fraction) | item: Cc1c(-c2ccccc2)oc2c(C(=O)OCCN3CCCCC3)cccc2c1=O.Cl
Ans. 0.000521

====

condition.label: in 2-ethoxyethanol, 288.15 K
readout.kind: solubility (mole fraction)
Reply: number alone, nothing else.

Qu. Field request: solubility (mole fraction) | item: Cc1c(-c2ccccc2)oc2c(C(=O)OCCN3CCCCC3)cccc2c1=O.Cl
Ans. 0.000173

====

condition.label: in 2-propoxyethanol, 313.15 K
readout.kind: solubility (mole fraction)
Reply: number alone, nothing else.

Qu. Field request: solubility (mole fraction) | item: Cc1c(-c2ccccc2)oc2c(C(=O)OCCN3CCCCC3)cccc2c1=O.Cl
Ans. 0.000593

====

condition.label: in acetonitrile, 293.15 K
readout.kind: solubility (mole fraction)
Reply: number alone, nothing else.

Qu. Field request: solubility (mole fraction) | item: Cc1c(-c2ccccc2)oc2c(C(=O)OCCN3CCCCC3)cccc2c1=O.Cl
Ans. 4.95e-05

====

condition.label: in ethanol, 313.15 K
readout.kind: solubility (mole fraction)
Reply: number alone, nothing else.

Qu. Field request: solubility (mole fraction) | item: Cc1c(-c2ccccc2)oc2c(C(=O)OCCN3CCCCC3)cccc2c1=O.Cl
Ans. 0.000364

====

condition.label: in ethylene glycol, 323.15 K
readout.kind: solubility (mole fraction)
Reply: number alone, nothing else.

Qu. Field request: solubility (mole fraction) | item: Cc1c(-c2ccccc2)oc2c(C(=O)OCCN3CCCCC3)cccc2c1=O.Cl
Ans. 0.005

====

condition.label: in 2-ethoxyethanol, 318.15 K
readout.kind: solubility (mole fraction)
Reply: number alone, nothing else.

Qu. Field request: solubility (mole fraction) | item: Cc1c(-c2ccccc2)oc2c(C(=O)OCCN3CCCCC3)cccc2c1=O.Cl
Ans. 0.000533

====

condition.label: in methanol, 318.15 K
readout.kind: solubility (mole fraction)
Reply: number alone, nothing else.

Qu. Field request: solubility (mole fraction) | item: Cc1c(-c2ccccc2)oc2c(C(=O)OCCN3CCCCC3)cccc2c1=O.Cl
Ans. 0.00255

====

condition.label: in NMP, 303.15 K
readout.kind: solubility (mole fraction)
Reply: number alone, nothing else.

Qu. Field request: solubility (mole fraction) | item: Cc1c(-c2ccccc2)oc2c(C(=O)OCCN3CCCCC3)cccc2c1=O.Cl
Ans. 0.000646

====

condition.label: in n-propanol, 293.15 K
readout.kind: solubility (mole fraction)
Reply: number alone, nothing else.

Qu. Field request: solubility (mole fraction) | item: Cc1c(-c2ccccc2)oc2c(C(=O)OCCN3CCCCC3)cccc2c1=O.Cl
Ans. 6.56e-05

====

condition.label: in acetonitrile, 308.15 K
readout.kind: solubility (mole fraction)
Reply: number alone, nothing else.

Qu. Field request: solubility (mole fraction) | item: Cc1c(-c2ccccc2)oc2c(C(=O)OCCN3CCCCC3)cccc2c1=O.Cl
Ans. 8.98e-05

====

condition.label: in ethylene glycol, 278.15 K
readout.kind: solubility (mole fraction)

Qu. Field request: solubility (mole fraction) | item: Cc1c(-c2ccccc2)oc2c(C(=O)OCCN3CCCCC3)cccc2c1=O.Cl
Ans. 0.000868

====

condition.label: in ethanol, 288.15 K
readout.kind: solubility (mole fraction)

Qu. Field request: solubility (mole fraction) | item: Cc1c(-c2ccccc2)oc2c(C(=O)OCCN3CCCCC3)cccc2c1=O.Cl
Ans. 0.000117

====

condition.label: in n-propanol, 323.15 K
readout.kind: solubility (mole fraction)

Qu. Field request: solubility (mole fraction) | item: Cc1c(-c2ccccc2)oc2c(C(=O)OCCN3CCCCC3)cccc2c1=O.Cl
Ans. 0.000425

====

condition.label: in water, 298.15 K
readout.kind: solubility (mole fraction)

Qu. Field request: solubility (mole fraction) | item: Cc1c(-c2ccccc2)oc2c(C(=O)OCCN3CCCCC3)cccc2c1=O.Cl
Ans. 0.000442

====

condition.label: in n-propanol, 303.15 K
readout.kind: solubility (mole fraction)
Reply: number alone, nothing else.

Qu. Field request: solubility (mole fraction) | item: Cc1c(-c2ccccc2)oc2c(C(=O)OCCN3CCCCC3)cccc2c1=O.Cl
Ans. 0.000142

====

condition.label: in ethylene glycol, 318.15 K
readout.kind: solubility (mole fraction)
Reply: number alone, nothing else.

Qu. Field request: solubility (mole fraction) | item: Cc1c(-c2ccccc2)oc2c(C(=O)OCCN3CCCCC3)cccc2c1=O.Cl
Ans. 0.00415

====

condition.label: in water, 318.15 K
readout.kind: solubility (mole fraction)
Reply: number alone, nothing else.

Qu. Field request: solubility (mole fraction) | item: Cc1c(-c2ccccc2)oc2c(C(=O)OCCN3CCCCC3)cccc2c1=O.Cl
Ans. 0.00092

====

condition.label: in acetonitrile, 288.15 K
readout.kind: solubility (mole fraction)
Reply: number alone, nothing else.

Qu. Field request: solubility (mole fraction) | item: Cc1c(-c2ccccc2)oc2c(C(=O)OCCN3CCCCC3)cccc2c1=O.Cl
Ans. 4.2e-05

====

condition.label: in NMP, 293.15 K
readout.kind: solubility (mole fraction)
Reply: number alone, nothing else.

Qu. Field request: solubility (mole fraction) | item: Cc1c(-c2ccccc2)oc2c(C(=O)OCCN3CCCCC3)cccc2c1=O.Cl
Ans. 0.00047

====

condition.label: in 2-propoxyethanol, 323.15 K
readout.kind: solubility (mole fraction)
Reply: number alone, nothing else.

Qu. Field request: solubility (mole fraction) | item: Cc1c(-c2ccccc2)oc2c(C(=O)OCCN3CCCCC3)cccc2c1=O.Cl
Ans. 0.000881

====

condition.label: in methanol, 308.15 K
readout.kind: solubility (mole fraction)
Reply: number alone, nothing else.

Qu. Field request: solubility (mole fraction) | item: Cc1c(-c2ccccc2)oc2c(C(=O)OCCN3CCCCC3)cccc2c1=O.Cl
Ans. 0.00169

====

condition.label: in water, 283.15 K
readout.kind: solubility (mole fraction)
Reply: number alone, nothing else.

Qu. Field request: solubility (mole fraction) | item: Cc1c(-c2ccccc2)oc2c(C(=O)OCCN3CCCCC3)cccc2c1=O.Cl
Ans. 0.00026

====

condition.label: in 2-propoxyethanol, 308.15 K
readout.kind: solubility (mole fraction)
Reply: number alone, nothing else.

Qu. Field request: solubility (mole fraction) | item: Cc1c(-c2ccccc2)oc2c(C(=O)OCCN3CCCCC3)cccc2c1=O.Cl
Ans. 0.000509

====

condition.label: in 2-methoxyethanol, 303.15 K
readout.kind: solubility (mole fraction)
Reply: number alone, nothing else.

Qu. Field request: solubility (mole fraction) | item: Cc1c(-c2ccccc2)oc2c(C(=O)OCCN3CCCCC3)cccc2c1=O.Cl
Ans. 0.000931

====

condition.label: in ethylene glycol, 303.15 K
readout.kind: solubility (mole fraction)
Reply: number alone, nothing else.

Qu. Field request: solubility (mole fraction) | item: Cc1c(-c2ccccc2)oc2c(C(=O)OCCN3CCCCC3)cccc2c1=O.Cl
Ans. 0.00236

====

condition.label: in 2-ethoxyethanol, 323.15 K
readout.kind: solubility (mole fraction)
Reply: number alone, nothing else.

Qu. Field request: solubility (mole fraction) | item: Cc1c(-c2ccccc2)oc2c(C(=O)OCCN3CCCCC3)cccc2c1=O.Cl
Ans. 0.000636
